# STUDY SYSTEM: T1, FZD4 cysteine-rich domain (CRD), MYC-tagged and GPI-anchored on CHO cells (human, UniProt Q9ULV1 42-167, GPI anchor)
# T1 construct: also called FZD4 CRD; CHO-myc-FZDGPI; not shown: MYC tag and GPI anchor signal
# T1 sequence: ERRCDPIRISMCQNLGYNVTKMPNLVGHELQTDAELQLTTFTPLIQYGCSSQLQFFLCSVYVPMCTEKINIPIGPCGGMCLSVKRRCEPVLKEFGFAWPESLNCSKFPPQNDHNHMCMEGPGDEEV
# EXPERIMENT SUMMARY: flow cytometry, CHO-CRD cells;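 note: flow cytometry of Fab binding to CHO cells overexpressing a Frizzled CRD, with binding defined as median fluorescence over twice that of CHO cells lacking any Frizzled CRD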
MEASURED QUANTITY: median fluorescence
Give the value as a plain number.

Lab note: Fab-2908 (Fab, V domains shown, Fab; also called Fv-2908) VH: EVQLVESGGGLVQPGGSLRLSCAASGFNFSSSSIHWVRQAPGKGLEWVAYIYPSYSYTYYADSVKGRFTISADTSKNTAYLQMNSLRAEDTAVYYCARAYYGHFHAMDYWGQGTLVTVSS VL: DIQMTQSPSSLSASVGDRVTITCRASQSVSSAVAWYQQKPGKAPKLLIYSASSLYSGVPSRFSGSRSGTDFTLTISSLQPEDFATYYCQQSSYSLITFGQGTKVEIK gave median fluorescence of 4.57
